Measured Ki (mouse H3 receptor (Mus musculus, UniProt P58406))

Known Ki results, listed for orientation:
structure.string | test.system | Ki
O[C@H]1CCN(CCc2cc3cc(-c4c5c(nc6ccnn46)CCC5)ccc3o2)C1 | mouse H3 receptor (Mus musculus, UniProt P58406) | < 500 nM
c1cc2nc3c(c(-c4ccc(OCCCN5CCOCC5)cc4)n2n1)CCC3 | mouse H3 receptor (Mus musculus, UniProt P58406) | < 500 nM
COC[C@@H]1CCCN1CCc1cc2cc(-c3c4c(nc5ccnn35)CCC4)ccc2o1 | mouse H3 receptor (Mus musculus, UniProt P58406) | < 50 nM
C[C@@H]1CCCN1CCc1cc2cc(-c3c4c(nc5ccnn35)CCC4)ccc2o1 | mouse H3 receptor (Mus musculus, UniProt P58406) | < 50 nM

Attention now shifts to the item below.
Input line: Which value of Ki has been reported for "CCN(CC)CCCOc1cccc(-c2c3c(nc4ccnn24)CCCCC3)c1" in the records?
Output line: < 5000 nM

* * *

Molecular target: human H3 receptor (Homo sapiens, UniProt Q9Y5N1)
Construct: Expression of this receptor was provided by utilization of the RAGE methodology; endogenous in cells; co-transfected with chimeric G-protein Gqαi5
Sequence (Q9Y5N1 whole entry): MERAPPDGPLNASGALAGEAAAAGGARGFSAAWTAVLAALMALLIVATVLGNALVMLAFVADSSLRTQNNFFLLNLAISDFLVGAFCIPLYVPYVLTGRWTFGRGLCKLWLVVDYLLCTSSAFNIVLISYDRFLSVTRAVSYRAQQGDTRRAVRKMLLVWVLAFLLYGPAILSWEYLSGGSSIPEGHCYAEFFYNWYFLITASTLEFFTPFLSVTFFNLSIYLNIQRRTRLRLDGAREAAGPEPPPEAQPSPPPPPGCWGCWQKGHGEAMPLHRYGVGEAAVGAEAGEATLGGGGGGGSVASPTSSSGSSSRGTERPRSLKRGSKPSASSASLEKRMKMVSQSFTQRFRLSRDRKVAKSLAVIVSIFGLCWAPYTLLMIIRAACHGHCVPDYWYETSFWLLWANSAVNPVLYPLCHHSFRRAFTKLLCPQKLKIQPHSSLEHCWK
Test: Radioligand competition binding assay, human H3 receptor (HT1080 cell membranes)
Conditions: competition binding vs [3H]Nα-methylhistamine (~2 nM), membranes of HT1080 cells expressing human H3 receptor
readout: Ki

Known Ki results, listed for orientation:
compound | test.system | Ki
c1cc2nc3c(c(-c4ccc5oc(CCN6CCOCC6)cc5c4)n2n1)CCC3 | human H3 receptor (Homo sapiens, UniProt Q9Y5N1) | < 50 nM
C[C@@H]1CCCN1CCCOc1ccc(-c2c3c(nc4ccnn24)CCCC3)cc1 | human H3 receptor (Homo sapiens, UniProt Q9Y5N1) | < 50 nM
CN(C)[C@@H]1CCN(CCc2cc3cc(-c4c5c(nc6ccnn46)CCC5)ccc3o2)C1 | human H3 receptor (Homo sapiens, UniProt Q9Y5N1) | < 500 nM
CC1CCCN1CCCOc1ccc(-c2c3c(nc4ccnn24)COC3)cc1 (centres unmarked) | human H3 receptor (Homo sapiens, UniProt Q9Y5N1) | < 50 nM
c1cc2nc3c(c(-c4ccc(OCCCN5CCCCC5)cc4)n2n1)CCCCC3 | human H3 receptor (Homo sapiens, UniProt Q9Y5N1) | < 50 nM
c1cc2nc3c(c(-c4ccc(OCCCN5CCCCC5)cc4)n2n1)CCC3 | human H3 receptor (Homo sapiens, UniProt Q9Y5N1) | < 50 nM
c1cc2nc3c(c(-c4ccc5oc(CCN6CCCC6)cc5c4)n2n1)CCCC3 | human H3 receptor (Homo sapiens, UniProt Q9Y5N1) | < 500 nM
c1cc(OCCCN2CCCCC2)cc(-c2c3c(nc4ccnn24)CCCCC3)c1 | human H3 receptor (Homo sapiens, UniProt Q9Y5N1) | < 500 nM

Input line: Which value of Ki has been reported for CC1CCCN1CCCOc1ccc(-c2c3c(nc4ccnn24)CCCC3)cc1 (centres unmarked) in the records?
Output line: < 50 nM

Input line: Same lookup for "C[C@@H]1CCCN1CCc1cc2cc(-c3c4c(nc5ccnn35)CCC4)ccc2o1" , please.
Output line: < 50 nM

Input line: Same lookup for "COC[C@@H]1CCCN1CCc1cc2cc(-c3c4c(nc5ccnn35)CCC4)ccc2o1" , please.
Output line: < 50 nM
